tested on: co-culture of three cancer cell lines; assay: Cell viability (CellTiter Glo) of compressed target pools, co-cultures of three cell lines (Target Compression); assay type: cell-based; conditions: 6 Pick 3, Pool 3 (REH, CCRF-CFM, JURKAT)
assay readout: DRS of pool

1) N#Cc1ccnc(N2C(=O)CC[C@H]2C(=O)N(c2cncc(F)c2)[C@H](C(=O)NC2CC(F)(F)C2)c2ccccc2Cl)c1 [Ivosidenib] : 0.77
2) CC1(C)CCC(CN2CCN(c3ccc(C(=O)NS(=O)(=O)c4ccc(NCC5CCOCC5)c([N+](=O)[O-])c4)c(Oc4cnc5[nH]ccc5c4)c3)CC2)=C(c2ccc(Cl)cc2)C1 [Venetoclax] : 1.57
3) Cc1[nH]c2ccccc2c1CCNCc1ccc(/C=C/C(=O)NO)cc1 [Panobinostat] : 14.41
4) COc1c(OCCCN2CCOCC2)ccc2c1N=C(NC(=O)c1cnc(N)nc1)N1CCN=C21 [Copanlisib] : 9.72
